Hello, the source for this data is the supplement of paper PMC9116672, in case you need it.

test: duplex formation free energy ΔG50 (Van't Hoff fit of HRM Tm); higher = less stable duplex; conditions: temperature for dG: 50 °C; NaCl: 500 mM (unadjusted); backbone: PS-PS (both strands fully phosphorothioate)
We use -10 kcal/mol as the dividing line for duplex formation free energy ΔG50: on or above the line is criterion met, below is criterion not met.

>  <POLYMER SEQUENCE>
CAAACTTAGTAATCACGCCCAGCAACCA

>  <LABEL CLASS>
criterion not met

$$$$
>  <POLYMER SEQUENCE>
CGGGATTTCTGGCATCATTGTCCT

>  <LABEL CLASS>
criterion not met

$$$$
>  <POLYMER SEQUENCE>
ACATGACTCATCTTAGCCGGCGAG

>  <LABEL CLASS>
criterion not met

$$$$
>  <POLYMER SEQUENCE>
CTGTAAGGCGATATGTT

>  <LABEL CLASS>
criterion met

$$$$
>  <POLYMER SEQUENCE>
AATGAGGAGTGAAATGG

>  <LABEL CLASS>
criterion met

$$$$
>  <POLYMER SEQUENCE>
CCGTTGCTGCTAGG

>  <LABEL CLASS>
criterion met

$$$$
>  <POLYMER SEQUENCE>
TTGTAGTTGACGTTTGTGATTTAGTGAATT

>  <LABEL CLASS>
criterion not met

$$$$
>  <POLYMER SEQUENCE>
GCTGTGAAACAATGTAG

>  <LABEL CLASS>
criterion met

$$$$
>  <POLYMER SEQUENCE>
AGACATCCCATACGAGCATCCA

>  <LABEL CLASS>
criterion not met

$$$$
>  <POLYMER SEQUENCE>
ACTGTATCGCCCTA

>  <LABEL CLASS>
criterion met

$$$$
>  <POLYMER SEQUENCE>
CGATTTTGTCAAGCCT

>  <LABEL CLASS>
criterion met

$$$$
>  <POLYMER SEQUENCE>
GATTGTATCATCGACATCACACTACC

>  <LABEL CLASS>
criterion not met

$$$$
>  <POLYMER SEQUENCE>
AATGTCGAACAGCAATT

>  <LABEL CLASS>
criterion met

$$$$
